protocolSummary: qHTS assay to test for compound auto fluorescence at 460 nm (blue) in HepG2 cell free culture (AID 720685); note: % is set by controls: 0 for no effect and ±100 for the full control effect
conditionInfo: Cell-free culture medium, blue autofluorescence 405/460 nm; series mostly up to 91.3 µM
Active and inactive are the calls of the source. Calls come from the whole dose curve; as a rule, active = well fitted curve in the direction sought with a large enough effect in the repeat runs; inconclusive = weak or mixed curves; inactive = flat fitted curve, though single readings scatter.

# compound, fluorescence, % of fluorescent control
records = [
    ("C[C@@H]1C[C@H]2[C@@H]3C[C@H](F)C4=CC(=O)C(Cl)=C[C@]4(C)[C@@]3(F)[C@@H](O)C[C@]2(C)[C@@]1(O)C(=O)CO", "inactive"),
    ("NO", "inactive"),
    ("CC(=O)c1cnccn1", "inactive"),
    ("CNCCO", "inactive"),
    ("OCCCCCO", "inactive"),
    ("CCC(C)(CCCC(C)C)OC(C)=O (centres undefined)", "inactive"),
    ("O=C(O)CNC(=O)c1ccccc1", "inactive"),
    ("CCC(=O)OCc1ccccc1", "inactive"),
    ("COC(=O)C1=C(C)NC(C)=C(C(=O)OC(C)C)C1c1cccc2nonc12 (centres undefined)", "-0.0347% [at 18.6 µM] (inactive)"),
    ("CCOC(=O)COc1cc(-n2ncc(C(F)(F)F)c(C)c2=O)c(F)cc1Cl", "inactive"),
    ("Cc1ccc(C(=O)c2ccc(CC(=O)O)n2C)cc1", "-0.117% [at 18.6 µM] (inactive)"),
    ("NC(N)=NCCN1CCCCCCC1", "0.0071% [at 18.6 µM] (inactive)"),
    ("Cc1ccc(C(=O)c2ccccc2)cc1", "inactive"),
    ("CCCOC(=O)CC", "inactive"),
]

---

protocolSummary: qHTS assay to identify small molecule antagonists of the estrogen related receptor signaling pathway with the pleiotropic PPARgamma coactivator (PGC) cell viability counter screen (AID 1224822;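 note: viability read after 17.5 h compound exposure; % is set by controls: 0 for no effect and ±100 for the full control effect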)
conditionInfo: ERR/PGC reporter cell line viability counter screen; series mostly up to 46.1 µM
Results filed as inconclusive are left out. Active and inactive are the calls of the source. Calls follow the shape of the dose curve; as a rule, active = well fitted cell-killing curve with a large enough effect in the repeat runs; inconclusive = weak or mixed curves, or effect the other way; inactive = flat fitted curve, though single readings scatter.

# smilesString, outcome
rows = [
    ("CN(C)C(=O)Oc1cccc([N+](C)(C)C)c1", "inactive"),
    ("CN1CC(=O)N/C1=N/C(=O)Nc1cccc(Cl)c1", "inactive"),
    ("CCCc1nn(C)c2c(=O)[nH]c(-c3cc(S(=O)(=O)N4CCN(C)CC4)ccc3OCC)nc12", "inactive"),
]

---

target: Cytochrome P450 3A4 (Homo sapiens) (UniProt P08684)
Sequence (P08684 whole entry, looked up): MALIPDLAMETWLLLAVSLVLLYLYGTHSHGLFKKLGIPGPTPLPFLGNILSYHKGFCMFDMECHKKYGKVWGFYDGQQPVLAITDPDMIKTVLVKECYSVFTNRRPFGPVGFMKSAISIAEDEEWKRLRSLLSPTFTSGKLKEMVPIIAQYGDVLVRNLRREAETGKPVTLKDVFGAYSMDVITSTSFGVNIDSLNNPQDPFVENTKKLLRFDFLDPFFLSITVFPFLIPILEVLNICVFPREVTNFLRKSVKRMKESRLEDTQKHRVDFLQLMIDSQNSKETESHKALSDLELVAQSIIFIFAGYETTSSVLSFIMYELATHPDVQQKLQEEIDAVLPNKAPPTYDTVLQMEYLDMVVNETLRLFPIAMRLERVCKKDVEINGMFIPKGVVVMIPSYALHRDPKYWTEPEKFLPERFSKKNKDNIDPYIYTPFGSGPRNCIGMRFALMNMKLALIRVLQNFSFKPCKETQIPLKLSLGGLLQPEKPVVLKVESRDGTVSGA
protocolSummary: Cytochrome P450 Family 3 Subfamily A Member 4 (CYP3A4) small molecule antagonists: luciferase reporter qHTS assay (AID 1671201); note: nearly all actives have a fitted effect of over 50% in size; note: potency is the fitted concentration of half-maximal effect
conditionInfo: P450-Glo CYP3A4 enzyme, luciferin luminescence, 1 h; series mostly up to 115 µM
Inconclusive results are not listed. The source made the active and inactive calls. Calls follow the shape of the dose curve; as a rule, active = well fitted inhibition curve with a large enough effect in the repeat runs; inconclusive = weak or mixed curves; inactive = no such curve, though single readings can be large or run the other way.

# compound, Potency
data = [
    ("O=C(c1ccccc1)C1(O)CCCCC1", "inactive"),
    ("CC1=NN(c2cccc(S(=O)(=O)O)c2)C(=O)C1", "inactive"),
    ("CCCCCCCCN1CCCC1=O", "inactive"),
    ("O=S(=O)(O)c1cccc2c(S(=O)(=O)O)cccc12", "inactive"),
    ("Cc1ccc(C(=O)c2ccc(CC(=O)O)n2C)cc1", "inactive"),
    ("CCN1C=CN(C)C1C (stereo unspecified)", "inactive"),
    ("CCCCOCCOC(=O)COc1cc(Cl)c(Cl)cc1Cl", "inactive"),
    ("C=CCOCC(O)CO (stereo unspecified)", "inactive"),
    ("C[N+](C)(C)CCCCCCCCCC[N+](C)(C)C", "inactive"),
    ("C=C[Si](OC(C)=O)(OC(C)=O)OC(C)=O", "39.9 µM (active)"),
    ("CC(CC=O)CC(C)(C)C (stereo unspecified)", "inactive"),
    ("CC(C)NNC(=O)c1ccncc1", "inactive"),
    ("C[C@@H]1CCC[C@H](C)N1", "inactive"),
    ("Nc1ccn([C@@H]2O[C@H](CO)[C@@H](O)[C@@H]2O)c(=O)n1", "inactive"),
    ("CCCCCCCCCCCCCCC(=O)O", "inactive"),
    ("C[N+]12CCC(CC1)C(OC(=O)C(O)(c1ccccc1)c1ccccc1)C2 (stereo unspecified)", "inactive"),
    ("CC(C)c1ccc2ncccc2c1", "inactive"),
    ("C[N+](C)(CCOc1ccccc1)Cc1cccs1", "inactive"),
    ("CO[Si](C)(OC)c1ccccc1", "25.2 µM (active)"),
    ("CCCCCCCCCC[N+](C)(C)[O-]", "inactive"),
    ("CCCCCCCC1CCCC1=O (stereo unspecified)", "inactive"),
    ("N[C@@H](CCC(=O)O)C(=O)O", "inactive"),
    ("Cc1cccc(C)c1NC(=O)CC12CCCN1CCC2", "inactive"),
    ("NC(CCC(=O)O)C(=O)O (stereo unspecified)", "inactive"),
    ("CC(=O)Oc1cccc(C)c1", "inactive"),
    ("CC1=NN(c2cc(S(=O)(=O)O)ccc2Cl)C(=O)C1N=Nc1ccccc1 (stereo unspecified)", "inactive"),
    ("CN(C)C(=O)Oc1ccc[n+](C)c1", "inactive"),
    ("C[N+]1(C)CCCC(OC(=O)C(O)(c2ccccc2)c2ccccc2)C1 (stereo unspecified)", "inactive"),
    ("COC(=O)Nc1ccc(Cl)c(Cl)c1", "inactive"),
    ("CCOCC(C)O (stereo unspecified)", "inactive"),
    ("CCCC(C)C(=O)OCC (stereo unspecified)", "inactive"),
    ("CC/C=C\\CCOC(C)OCC (stereo unspecified)", "inactive"),
    ("Nc1ccn([C@@H]2O[C@H](CO)[C@@H](O)C2(F)F)c(=O)n1", "inactive"),
    ("[Ca+2]", "inactive"),
    ("C=CC(C)(CCC=C(C)C)OC(=O)CC (stereo unspecified)", "28.3 µM (active)"),
    ("C=CCCC(=O)O", "inactive"),
]
